Taken from PubChem BioAssay (Tox21).

measurement description: qHTS assay to identify small molecule agonists of the constitutive androstane receptor (CAR) signaling pathway - cell viability counter screen (AID 1224836); note: nearly all actives have a fitted effect of over 45% in size
condition summary: HepG2-CYP2B6-hCAR viability, CellTiter-Fluor, 23 h, PK11195 added to every well; series mostly up to 92.4 µM
Results filed as inconclusive are left out. Calls of active or inactive are those of the source. Calls come from the whole dose curve; as a rule, active = well fitted cell-killing curve with a large enough effect in the repeat runs; inconclusive = weak or mixed curves, or effect the other way; inactive = flat fitted curve, though single readings scatter.
Returns: one label drawn from true (1) = active, false (0) = inactive

Here's what some known entries look like.
{"structure as smiles": "N#Cc1ccccc1N", "label class": "false (0)"}
{"structure as smiles": "CCC(C)(C)C(=O)OC1=C(c2ccc(Cl)cc2Cl)C(=O)OC12CCCCC2", "label class": "false (0)"}
{"structure as smiles": "Oc1ccc(C(=C(Cl)Cl)c2ccc(O)cc2)cc1", "label class": "false (0)"}
{"structure as smiles": "CCOCCOC(C)=O", "label class": "false (0)"}
{"structure as smiles": "CCCCCCCCCC[N+](C)(C)CCCCCCCCCC", "label class": "true (1)"}
{"structure as smiles": "O=c1[nH]c2ccccc2n1C1CCN(CCCC(c2ccc(F)cc2)c2ccc(F)cc2)CC1", "label class": "true (1)"}

For Cc1cc(SCc2sc(-c3ccc(C(F)(F)F)c(F)c3)nc2C)ccc1OCC(=O)O , what call appears in the results of this test?
false (0)

For O=C(Nc1ccc2[nH]ccc2c1)c1cc2cc(F)ccc2n1Cc1cccc(F)c1 , what call appears in the results of this test?
false (0)

For Oc1cccc(-c2ccccc2)c1 , what call appears in the results of this test?
false (0)

###

measurement description: qHTS assay to identify small molecule antagonists of the retinoic acid receptor (RAR) signaling pathway (AID 1159552; note: nearly all actives have a fitted effect of over 50% in size)
condition summary: C3RL4 RARE luciferase reporter, retinol-stimulated, 6 h; series mostly up to 92.4 µM
Inconclusive results are not listed. The source made the active and inactive calls. Calls come from the whole dose curve; as a rule, active = well fitted inhibition curve with a large enough effect in the repeat runs; inconclusive = weak or mixed curves, or effect the other way; inactive = no such curve, though single readings can be large or run the other way.
Returns: one label drawn from TRUE = active, FALSE = inactive

Here's what some known entries look like.
{"structure as smiles": "N#C/C=C/c1ccccc1", "label class": "FALSE"}
{"structure as smiles": "NC(=O)CCl", "label class": "FALSE"}
{"structure as smiles": "Fc1ccc(Oc2ccnc3cc(Cl)cc(Cl)c23)cc1", "label class": "FALSE"}
{"structure as smiles": "CCCSP(=O)(OCC)SCCC", "label class": "FALSE"}
{"structure as smiles": "CN(C)CCc1c[nH]c2ccc(O)cc12", "label class": "FALSE"}
{"structure as smiles": "CN(C)C1CSSSC1", "label class": "FALSE"}
{"structure as smiles": "CCCCCCCCCCBr", "label class": "FALSE"}
{"structure as smiles": "CC(=O)c1ccc(-c2ccccc2)cc1", "label class": "FALSE"}
{"structure as smiles": "O=C(Cl)c1ccc(Cl)cc1", "label class": "FALSE"}
{"structure as smiles": "CC(C)CCCCCOC(=O)c1ccccc1C(=O)OCCCCCC(C)C", "label class": "FALSE"}

For ClCCN1CCOCC1 , what call appears in the results of this test?
FALSE

For c1ccc(Nc2ccc3ccccc3c2)cc1 , what call appears in the results of this test?
FALSE

For Cc1cc(SCc2sc(-c3ccc(C(F)(F)F)c(F)c3)nc2C)ccc1OCC(=O)O , what call appears in the results of this test?
FALSE

For Cc1ccc(CCl)cc1 , what call appears in the results of this test?
FALSE

For CC(C)OC(=O)C(O)(c1ccc(Cl)cc1)c1ccc(Cl)cc1 , what call appears in the results of this test?
TRUE

###

measurement description: A CellTox Green Cytotoxicity Assay to monitor cytotoxicity in HEK293 cells - 40 hour (AID 1224871); note: nearly all actives have a fitted effect of over 45% in size; note: potency is the fitted concentration of half-maximal effect
condition summary: CellTox Green fluorescence; series mostly up to 76.8 µM
Results filed as inconclusive are left out. Calls of active or inactive are those of the source. Calls come from the whole dose curve; as a rule, active = well fitted activation curve with a large enough effect in the repeat runs; inconclusive = weak or mixed curves; inactive = flat fitted curve, though single readings scatter.
property label: Potency

{"compound": "N#Cc1ccccc1N", "Potency": "inactive"}
{"compound": "CC(C)OC(=O)C(O)(c1ccc(Cl)cc1)c1ccc(Cl)cc1", "Potency": "49 µM (active)"}
{"compound": "O=C(Nc1ccc2[nH]ccc2c1)c1cc2cc(F)ccc2n1Cc1cccc(F)c1", "Potency": "inactive"}
{"compound": "CCc1ccccc1C", "Potency": "inactive"}
{"compound": "Oc1cccc(-c2ccccc2)c1", "Potency": "inactive"}

Identify the reported Potency for the following entry. O=C(CCl)C(Cl)Cl
24.8 µM (active)

Identify the reported Potency for the following entry. O=[N+]([O-])c1cc(C(F)(F)F)c(Cl)c([N+](=O)[O-])c1Cl
6.16 µM (active)

Identify the reported Potency for the following entry. Oc1c(Br)c(Br)c(Br)c(Br)c1Br
inactive

Identify the reported Potency for the following entry. COP(=O)(CCC(=O)NCO)OC
inactive

###

target desc: Cytochrome P450 3A4 (Homo sapiens) (UniProt P08684)
Sequence (P08684 whole entry, looked up): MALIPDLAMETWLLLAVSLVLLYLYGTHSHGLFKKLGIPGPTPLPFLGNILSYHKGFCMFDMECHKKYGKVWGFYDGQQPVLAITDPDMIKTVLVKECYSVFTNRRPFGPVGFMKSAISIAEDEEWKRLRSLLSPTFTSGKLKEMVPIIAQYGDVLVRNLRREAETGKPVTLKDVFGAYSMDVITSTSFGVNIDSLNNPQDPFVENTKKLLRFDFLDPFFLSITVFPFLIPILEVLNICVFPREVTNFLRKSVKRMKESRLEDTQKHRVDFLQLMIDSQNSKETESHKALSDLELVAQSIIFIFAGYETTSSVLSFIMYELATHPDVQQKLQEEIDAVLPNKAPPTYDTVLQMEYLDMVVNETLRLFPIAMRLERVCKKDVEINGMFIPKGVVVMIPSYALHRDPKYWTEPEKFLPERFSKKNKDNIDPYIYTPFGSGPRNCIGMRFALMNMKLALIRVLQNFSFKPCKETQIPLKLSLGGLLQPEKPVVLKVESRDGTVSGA
measurement description: Cytochrome P450 Family 3 Subfamily A Member 4 (CYP3A4) small molecule antagonists: luciferase reporter qHTS assay (AID 1671201); note: nearly all actives have a fitted effect of over 50% in size
condition summary: P450-Glo CYP3A4 enzyme, luciferin luminescence, 1 h; series mostly up to 115 µM
Results filed as inconclusive are left out. Calls of active or inactive are those of the source. Calls come from the whole dose curve; as a rule, active = well fitted inhibition curve with a large enough effect in the repeat runs; inconclusive = weak or mixed curves; inactive = no such curve, though single readings can be large or run the other way.
Returns: one label drawn from active, inactive

Here's what some known entries look like.
{"compound": "O=[N+]([O-])c1cc(C(F)(F)F)c(Cl)c([N+](=O)[O-])c1Cl", "label class": "active"}
{"compound": "Oc1ccc2ccc3cccc4ccc1c2c34", "label class": "active"}
{"compound": "N#C/C=C/C#N", "label class": "active"}
{"compound": "CC(C)(c1ccc(O)c(-c2ccccc2)c1)c1ccc(O)c(-c2ccccc2)c1", "label class": "active"}

For Cl/C=C\CCl , what call appears in the results of this test?
inactive

For Oc1cc(Cl)c(Cl)c(Cl)c1 , what call appears in the results of this test?
active

For CCCCCCCCCCCCBr , what call appears in the results of this test?
inactive

For CCC[CH2][Sn]([CH2]CCC)([CH2]CCC)[O]C(=O)c1ccccc1 , what call appears in the results of this test?
active

###

measurement description: qHTS assay to identify small molecule agonists of the vitamin D receptor (VDR) signaling pathway - cell viability counter screen (AID 743224); note: nearly all actives have a fitted effect of over 50% in size
condition summary: VDR-bla HEK293T viability, CellTiter-Glo luminescence, 16 h; series mostly up to 62.6 µM
Inconclusive results are not listed. Active and inactive are the calls of the source. Calls follow the shape of the dose curve; as a rule, active = well fitted cell-killing curve with a large enough effect in the repeat runs; inconclusive = weak or mixed curves, or effect the other way; inactive = no such curve, though single readings can be large or run the other way.
Returns: one label drawn from 1 (yes) (active), 0 (no) (inactive)

Here's what some known entries look like.
{"compound": "O=C(CCl)Nc1ccccc1", "label class": "1 (yes)"}
{"compound": "O=CC(Br)(Br)Br", "label class": "1 (yes)"}
{"compound": "C1CCC2CCCCC2C1 (stereo unspecified)", "label class": "0 (no)"}
{"compound": "CC(C)N1C(=O)N(c2ccccc2)CSC1=NC(C)(C)C", "label class": "1 (yes)"}

Here's the next entry for you.
For Nc1ccccc1C(=O)Oc1ccc2ccccc2c1 , what call appears in the results of this test?
0 (no)

###

measurement description: qHTS assay to identify small molecule agonists of the AP-1 signaling pathway (AID 1159526)
condition summary: ME-180 AP-1-bla reporter, beta-lactamase FRET ratio, 5 h; series mostly up to 76.8 µM
Results filed as inconclusive are left out. Active and inactive are the calls of the source. The call rests on the fitted dose curve.
Returns: one label drawn from yes (1) for active, no (0) for inactive

{"compound": "ClC1=C(Cl)[C@]2(Cl)[C@H]3[C@H]([C@H]4C=C[C@H]3C4)[C@@]1(Cl)C2(Cl)Cl", "label class": "no (0)"}

For CC(C)C(=O)Cl , what call appears in the results of this test?
no (0)

For CC(C)OS(C)(=O)=O , what call appears in the results of this test?
no (0)

For C[As+](C)(C)CC(=O)[O-] , what call appears in the results of this test?
yes (1)

For CC(C)CBr , what call appears in the results of this test?
no (0)

For Oc1ccccc1Br , what call appears in the results of this test?
no (0)

###

measurement description: qHTS assay to identify small molecule agonists of the AP-1 signaling pathway - cell viability counter screen (AID 1159525); note: nearly all actives have a fitted effect of over 55% in size; note: potency is the fitted concentration of half-maximal effect
condition summary: ME-180 (cervical carcinoma) AP-1-bla cells viability, ATP luminescence, 5 h; series mostly up to 76.8 µM
Records with an inconclusive call do not appear. Activity calls are given as the source filed them. The call rests on the fitted dose curve.
property label: Potency

Here's what some known entries look like.
{"molecule": "S=C=Nc1cccc2ccccc12", "Potency": "24.3 µM (active)"}
{"molecule": "N#Cc1ccc(O)cc1", "Potency": "inactive"}
{"molecule": "CN(C)[C@@H]1C(=O)C(C(N)=O)=C(O)[C@@]2(O)C(=O)C3=C(O)c4c(O)ccc(Cl)c4[C@@](C)(O)[C@H]3C[C@@H]12", "Potency": "inactive"}
{"molecule": "CC(C)(C)C(O)C(Oc1ccc(-c2ccccc2)cc1)n1cncn1 (stereo not given)", "Potency": "inactive"}
{"molecule": "CCc1cc(C)cc(CC)c1-c1c(OC(=O)C(C)(C)C)n2n(c1=O)CCOCC2", "Potency": "inactive"}

Identify the reported Potency for the following entry. CCCSP(=O)(OCC)SCCC
inactive

Identify the reported Potency for the following entry. O=C1c2ccccc2C(=O)C1C(=O)C(c1ccccc1)c1ccc(Cl)cc1 (stereo not given)
inactive
